Experimental target: recombinant human OX40 fused to a His-tag (Acro Biosystems, cat. no. OX0-H5224) (human) (UniProt P43489)
Sequence (P43489 29-214 limits assumed): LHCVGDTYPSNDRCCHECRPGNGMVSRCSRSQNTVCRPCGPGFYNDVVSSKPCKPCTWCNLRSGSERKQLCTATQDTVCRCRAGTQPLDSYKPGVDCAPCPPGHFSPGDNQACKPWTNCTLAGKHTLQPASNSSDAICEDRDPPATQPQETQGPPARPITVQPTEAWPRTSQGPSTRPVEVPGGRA
Assay procedure: BLI cross-block; first Ab (competitor): IgG1-CD134-003
Quick rule for you: association response under 1 nm gets Condition met, anything else gets Condition not met.

{"Binder": "IgG1-CD134-MEDI0562 (antibody, INN chains, looked up, V domains shown, IgG1) VH: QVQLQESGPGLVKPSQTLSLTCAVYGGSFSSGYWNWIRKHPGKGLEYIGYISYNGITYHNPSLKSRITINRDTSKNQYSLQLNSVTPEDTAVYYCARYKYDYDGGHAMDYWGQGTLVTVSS VL: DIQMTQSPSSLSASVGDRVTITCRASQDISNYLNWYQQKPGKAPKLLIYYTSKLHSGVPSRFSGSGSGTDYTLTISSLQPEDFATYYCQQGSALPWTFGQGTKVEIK", "Label class": "Condition not met"}
{"Binder": "IgG1-CD134-ABBV368 (antibody, INN chains, looked up, V domains shown, IgG1) VH: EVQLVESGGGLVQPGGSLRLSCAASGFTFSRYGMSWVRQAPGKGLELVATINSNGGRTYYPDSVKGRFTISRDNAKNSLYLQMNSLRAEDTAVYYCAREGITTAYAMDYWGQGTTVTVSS VL: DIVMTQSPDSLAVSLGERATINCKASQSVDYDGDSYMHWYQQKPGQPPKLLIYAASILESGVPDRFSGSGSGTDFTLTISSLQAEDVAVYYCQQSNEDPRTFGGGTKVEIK", "Label class": "Condition not met"}
{"Binder": "IgG1-CD134-GBR830 (antibody, INN chains, looked up, V domains shown, IgG1) VH: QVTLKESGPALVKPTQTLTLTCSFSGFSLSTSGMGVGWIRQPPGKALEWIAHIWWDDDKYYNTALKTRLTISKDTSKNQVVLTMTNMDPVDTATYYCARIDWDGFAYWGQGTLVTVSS VL: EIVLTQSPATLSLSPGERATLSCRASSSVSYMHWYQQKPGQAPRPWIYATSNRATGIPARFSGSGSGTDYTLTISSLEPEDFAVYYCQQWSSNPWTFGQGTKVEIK", "Label class": "Condition met"}
{"Binder": "IgG1-CD134-Hu106 (antibody, from another filing, V domains shown) VH: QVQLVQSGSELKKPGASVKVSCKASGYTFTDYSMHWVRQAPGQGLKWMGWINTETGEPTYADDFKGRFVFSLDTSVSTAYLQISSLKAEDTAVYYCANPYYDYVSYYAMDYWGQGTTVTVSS VL: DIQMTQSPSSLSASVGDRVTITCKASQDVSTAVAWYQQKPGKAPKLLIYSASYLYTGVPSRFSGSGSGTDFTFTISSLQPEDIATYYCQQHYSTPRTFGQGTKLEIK", "Label class": "Condition not met"}
{"Binder": "IgG1-CD134-RG7888 (antibody, INN chains, looked up, V domains shown, IgG1) VH: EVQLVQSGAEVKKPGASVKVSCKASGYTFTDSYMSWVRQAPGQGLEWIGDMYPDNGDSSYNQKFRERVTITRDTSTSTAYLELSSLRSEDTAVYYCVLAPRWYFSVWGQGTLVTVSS VL: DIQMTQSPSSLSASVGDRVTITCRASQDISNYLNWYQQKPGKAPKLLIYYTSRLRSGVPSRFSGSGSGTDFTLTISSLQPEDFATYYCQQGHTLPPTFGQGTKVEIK", "Label class": "Condition met"}
